tested.target: AgHse1
procedure.summary: SPOT peptide array binding signal intensity (averaged, normalized) (arbitrary units (background-subtracted, floor 0; scale differs between SH3 domains)); higher = stronger binding of the SH3 domain to the peptide
metric: SPOT peptide array binding signal intensity

Here are 2 binders together with their reported answers.
- GAGERPRLVPRPINV: ≤ 0
- PPIPIVPSSPAPPLP: ≤ 0

# SPOT peptide array binding signal intensity (binder: ALKQKKIPPPFKPHL ) is ≤ 0
